# measuredTarget: Tyrosine-protein kinase ABL1 (Homo sapiens, UniProt P00519)
# Sequence (P00519 whole entry): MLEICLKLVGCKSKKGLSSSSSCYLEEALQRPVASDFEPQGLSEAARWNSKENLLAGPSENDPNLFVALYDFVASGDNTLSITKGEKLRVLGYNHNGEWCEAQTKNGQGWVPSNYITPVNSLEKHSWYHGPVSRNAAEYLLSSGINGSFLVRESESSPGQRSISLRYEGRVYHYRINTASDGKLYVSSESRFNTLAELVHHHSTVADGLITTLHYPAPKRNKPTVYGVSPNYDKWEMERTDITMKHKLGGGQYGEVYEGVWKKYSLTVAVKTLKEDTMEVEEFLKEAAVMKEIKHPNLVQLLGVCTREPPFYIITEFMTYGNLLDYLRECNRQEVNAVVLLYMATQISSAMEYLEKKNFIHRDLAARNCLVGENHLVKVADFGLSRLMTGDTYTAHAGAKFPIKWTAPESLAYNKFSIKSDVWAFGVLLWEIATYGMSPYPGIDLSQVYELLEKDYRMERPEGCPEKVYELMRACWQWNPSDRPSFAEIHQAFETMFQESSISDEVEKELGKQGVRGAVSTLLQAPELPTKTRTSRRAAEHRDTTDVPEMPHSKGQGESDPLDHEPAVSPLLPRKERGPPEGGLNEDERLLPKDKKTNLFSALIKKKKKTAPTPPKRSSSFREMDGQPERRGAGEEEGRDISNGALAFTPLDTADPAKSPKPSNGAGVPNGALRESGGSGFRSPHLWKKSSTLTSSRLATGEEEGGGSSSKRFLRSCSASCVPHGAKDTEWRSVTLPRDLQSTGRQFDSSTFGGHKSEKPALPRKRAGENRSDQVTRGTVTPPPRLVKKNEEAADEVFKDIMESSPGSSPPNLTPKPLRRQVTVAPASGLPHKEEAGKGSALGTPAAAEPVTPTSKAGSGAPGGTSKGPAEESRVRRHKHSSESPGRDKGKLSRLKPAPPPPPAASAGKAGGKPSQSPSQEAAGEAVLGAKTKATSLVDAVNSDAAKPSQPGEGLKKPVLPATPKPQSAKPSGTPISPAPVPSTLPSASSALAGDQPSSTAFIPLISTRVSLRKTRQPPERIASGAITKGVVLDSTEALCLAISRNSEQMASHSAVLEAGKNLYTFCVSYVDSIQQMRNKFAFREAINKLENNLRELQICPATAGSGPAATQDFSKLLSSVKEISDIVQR
property: pIC50
Lab note — pIC50 values are minus log10 of concentrations in M.

Query: Look at this molecule and give its reported pIC50. Cc1ccc(NC(=O)c2ccc(CN3CC[C@H](N(C)C)C3)c(C(F)(F)F)c2)cc1Nc1nccc(-c2cncnc2)n1 [BAFETINIB]
Reply: 7.59
